These entries and their values trace back to patent US20260027208A1.

Target: T1, KRAS G12D peptide on HLA-A*11:01 (human)
T1 peptide: VVVGADGVGK
Assay: CD137 by flow cytometry; transduced primary CD4+ and CD8+ T cells, TRAC/TRBC wild type; G12D peptide titrated (FIG. 3E); full-length, on cells
Description: Primary CD4+ and CD8+ T cells were transduced with a KRAS-G12D-specific T cell receptor (TCR69, TCR79, TCR80, TCR81, or TCR91), and were either edited to knockout TRAC and TRBC or left with unmodified TRAC and TRBC genes, and expanded for several days. Engineered T cells were incubated with G12D peptide at decreasing concentrations and T cell responses were assessed by measuring CD137 expression. […]
propertyMeasured: EC50 of peptide (nM)
Express the result in nM but write the number alone.

Input line: Fill blank: measured EC50 of peptide of the binder TCR6 (TCR, V domains shown) Valpha: GQQLNQSPQSMFIQEGEDVSMNCTSSSIFNTWLWYKQDPGEGPVLLIALYKAGELTSNGRLTAQFGITRKDSFLNISASIPSDVGIYFCAGRREGAQKLVFGQGTRLTINP Vbeta: GAGVSQSPRYKVAKRGQDVALRCDPISGHVSLFWYQQALGQGPEFLTYFQNEAQLDKSGLPSDRFFAERPEGSVSTLKIQRTQQEDSAVYLCASSSTLMGVNIQYFGAGTRLSVL is ____.
Output line: 24

Input line: Now consider TCR91 (TCR, V domains shown) Valpha: AQKVTQAQTEISVVEKEDVTLDCVYETRDTTYYLFWYKQPPSGELVFLIRRNSFDEQNEISGRYSWNFQKSTSSFNFTITASQVVDSAVYFCALNEGGGSTLGRLYFGRGTQLTVWP Vbeta: DAMVIQNPRYQVTQFGKPVTLSCSQTLNHNVMYWYQQKSSQAPKLLFHYYDKDFNNEADTPDNFQSRRPNTSFCFLDIRSPGLGDAAMYLCATSTGRVYQPQHFGDGTRLSIL and answer again.
Output line: 131

Input line: // repeat for TCR4 (TCR, V domains shown) Valpha: QKEVEQDPGPLSVPEGAIVSLNCTYSNSAFQYFMWYRQYSRKGPELLMYTYSSGNKEDGRFTAQVDKSSKYISLFIRDSQPSDSATYLCAMGALNSGAGSYQLTFGKGTKLSVIP Vbeta: KAGVTQTPRYLIKTRGQQVTLSCSPISGHRSVSWYQQTPGQGLQFLFEYFSETQRNKGNFPGRFSGRQFSNSRSEMNVSTLELGDSALYLCASSLSSGTGTEAFFGQGTRLTVE and report
Output line: 49.8
